- Tested on: RTMDR (multi-RT inhibitor-resistant strain)
- test-protocol: Anti-HIV replication assay against RTMDR strain in MT-4 cell line
- Assay type: cell-based, HIV-1
- measurement-parameters: Human immunodeficiency virus 1, MT4, read-out: RTMDR EC50 (μM)
metric: EC50

| smiles-text | meas-value |
| --- | --- |
| Cc1cc(=O)oc2c([C@H](C)OC(=O)[C@@]34CC[C@@](C)(C(=O)O3)C4(C)C)c(OC(C)C)ccc12 | > 20 µM |
| Cc1cc(=O)oc2c([C@H](COC(=O)[C@@]34CC[C@@](C)(C(=O)O3)C4(C)C)OC(=O)[C@@]34CC[C@@](C)(C(=O)O3)C4(C)C)c(OC(C)C)ccc12 | > 20 µM |
| Cc1cc(=O)oc2cc(OC(C)(C)[C@@H](COC(=O)[C@@]34CC[C@@](C)(C(=O)O3)C4(C)C)OC(=O)[C@@]34CC[C@@](C)(C(=O)O3)C4(C)C)ccc12 | > 20 µM |

###

- System: HIV-1IIIB
- test-protocol: Anti-HIV replication assay against wild-type HIV-1IIIB in MT-2 cell line
- Format: cell-based
- measurement-parameters: Human immunodeficiency virus 1, MT2
pEC50: −log10 of the molar value.
metric: pEC50

| smiles-text | target-under-test | metric | meas-value |
| --- | --- | --- | --- |
| Cc1cc(=O)oc2c([C@H](COC(=O)[C@@]34CC[C@@](C)(C(=O)O3)C4(C)C)OC(=O)[C@@]34CC[C@@](C)(C(=O)O3)C4(C)C)c(OC(C)C)ccc12 | HIV-1IIIB | pEC50 | < 4.70 |
| Cc1cc(=O)oc2c([C@H](C)OC(=O)[C@@]34CC[C@@](C)(C(=O)O3)C4(C)C)c(OC(C)C)ccc12 | HIV-1IIIB | pEC50 | < 4.70 |
| Cc1cc(=O)oc2cc(OC(C)(C)[C@@H](COC(=O)[C@@]34CC[C@@](C)(C(=O)O3)C4(C)C)OC(=O)[C@@]34CC[C@@](C)(C(=O)O3)C4(C)C)ccc12 | HIV-1IIIB | pEC50 | < 4.70 |
| CC(=O)c1ccc2c(c1C)[C@@H](OC(=O)[C@@]13CC[C@@](C)(C(=O)O1)C3(C)C)[C@@H](OC(=O)[C@@]13CC[C@@](C)(C(=O)O1)C3(C)C)C(C)(C)O2 | HIV-1IIIB | pEC50 | < 4.70 |

###

- System: HIV-1NL4-3
- test-protocol: Anti-HIV replication assay against HIV-1NL4-3 in MT-4 cell line
- Type: cell-based
- measurement-parameters: Human immunodeficiency virus 1, MT4, read-out: HIV-1NL4-3 EC50 (μM)
Reported EC50 values for the following molecules.

| molecule | EC50 |
| --- | --- |
| Cc1cc(=O)oc2c([C@H](C)OC(=O)[C@@]34CC[C@@](C)(C(=O)O3)C4(C)C)c(OC(C)C)ccc12 [Compound 8] | > 20 µM |
| Cc1cc(=O)oc2cc(OC(C)(C)[C@@H](COC(=O)[C@@]34CC[C@@](C)(C(=O)O3)C4(C)C)OC(=O)[C@@]34CC[C@@](C)(C(=O)O3)C4(C)C)ccc12 [Compound 6] | > 20 µM |
| Cc1cc(=O)oc2c([C@H](COC(=O)[C@@]34CC[C@@](C)(C(=O)O3)C4(C)C)OC(=O)[C@@]34CC[C@@](C)(C(=O)O3)C4(C)C)c(OC(C)C)ccc12 [Compound 7] | > 20 µM |
